Hey, just so you know, these numbers are from patent US10556889B1.

biological target: uOR (Mus musculus); assay: β-arrestin recruitment to uOR / receptor internalization; format: cell-based; set-up: expressed in transfected cells
measurementLabel: pEC50
Reminder that pEC50 means the negative base-10 logarithm of the concentration expressed in mol/L.

| compound | measurementTarget | measuredValue |
| --- | --- | --- |
| COC(=O)[C@@H]1C[C@H](OC(=O)Nc2csc(C)n2)C(=O)[C@H]2[C@@]1(C)CC[C@H]1C(=O)O[C@H](c3ccoc3)C[C@]21C [Formula Ic-i] | uOR (Mus musculus) | 5.68 |
| COC(=O)[C@@H]1C[C@H](NC(=O)c2ccccc2)C(=O)[C@H]2[C@@]1(C)CC[C@H]1C(=O)O[C@H](c3ccoc3)C[C@]21C | uOR (Mus musculus) | 5.04 |

Please examine the following record next.
**Q:** I'd like to know its pEC50. The compound in question is COC(=O)[C@@H]1C[C@H](OC(=O)Nc2ccc(C#N)cc2)C(=O)[C@H]2[C@@]1(C)CC[C@H]1C(=O)O[C@H](c3ccoc3)C[C@]21C [Formula Ia-i]
**A:** 5.01

====

biological target: uOR (Mus musculus); experiment: β-arrestin recruitment to uOR / receptor internalization; type: cell-based; design: expressed in transfected cells; conditions: maximum signal/background ratio for uOR receptor internalization at the EC50
measurementLabel: Max Fold Efficacy
Format: numeric value only, no unit, no commentary.

**Q:** I'd like to know its Max Fold Efficacy. The compound in question is `COC(=O)[C@@H]1C[C@H](OC(=O)c2ccccc2)C(=O)[C@H]2[C@@]1(C)CC[C@H]1C(=O)O[C@H](c3ccoc3)C[C@]21C`
**A:** 2.4

**Q:** And then `COC(=O)[C@@H]1C[C@H](NC(=O)NC(=O)c2ccccc2)C(=O)[C@H]2[C@@]1(C)CC[C@H]1C(=O)O[C@H](c3ccoc3)C[C@]21C` , what is it?
**A:** 3.14

**Q:** And then `COC(=O)[C@@H]1C[C@H](OC(=O)Nc2ccc(C#N)cc2)C(=O)[C@H]2[C@@]1(C)CC[C@H]1C(=O)O[C@H](c3ccoc3)C[C@]21C` , what is it?
**A:** 9.5

====

biological target: uOR (Mus musculus); assay: Agonist induced ERK 1/2 phosphorylation (efficacy and potency relative to DAMGO)
measurementLabel: pEC50
Reminder that pEC50 means the negative base-10 logarithm of the concentration expressed in mol/L.

A selection of reference data follows.
| sampleSmiles | pEC50 |
| --- | --- |
| COC(=O)[C@@H]1C[C@H](OC(=O)Nc2ccc(OC(F)F)cc2)C(=O)[C@H]2[C@@]1(C)CC[C@H]1C(=O)O[C@H](c3ccoc3)C[C@]21C | 6.79 |
| COC(=O)[C@@H]1C[C@H](OC(=O)Nc2ccc(SC(F)(F)F)cc2)C(=O)[C@H]2[C@@]1(C)CC[C@H]1C(=O)O[C@H](c3ccoc3)C[C@]21C | 5.64 |
| COC(=O)[C@@H]1C[C@H](OC(=O)Nc2ccccc2)C(=O)[C@H]2[C@@]1(C)CC[C@H]1C(=O)O[C@H](c3ccoc3)C[C@]21C | 5.92 |

**Q:** I'd like to know its pEC50. The compound in question is `COC(=O)[C@@H]1C[C@H](OC(=O)c2ccc(Cl)nc2)C(=O)[C@H]2[C@@]1(C)CC[C@H]1C(=O)O[C@H](c3ccoc3)C[C@]21C`
**A:** 6.43

**Q:** And then `COC(=O)[C@@H]1C[C@H](OC(=O)Nc2ccc(F)cc2)C(=O)[C@H]2[C@@]1(C)CC[C@H]1C(=O)O[C@H](c3ccoc3)C[C@]21C` , what is it?
**A:** 6.81

**Q:** And then `COC(=O)[C@@H]1C[C@H](OC(=O)c2ccc(OC)cc2)C(=O)[C@H]2[C@@]1(C)CC[C@H]1C(=O)O[C@H](c3ccoc3)C[C@]21C` , what is it?
**A:** 5.46

====

biological target: uOR (Mus musculus, UniProt P42866); test: Agonist induced ERK 1/2 phosphorylation (efficacy and potency relative to DAMGO)
Sequence (P42866 whole entry): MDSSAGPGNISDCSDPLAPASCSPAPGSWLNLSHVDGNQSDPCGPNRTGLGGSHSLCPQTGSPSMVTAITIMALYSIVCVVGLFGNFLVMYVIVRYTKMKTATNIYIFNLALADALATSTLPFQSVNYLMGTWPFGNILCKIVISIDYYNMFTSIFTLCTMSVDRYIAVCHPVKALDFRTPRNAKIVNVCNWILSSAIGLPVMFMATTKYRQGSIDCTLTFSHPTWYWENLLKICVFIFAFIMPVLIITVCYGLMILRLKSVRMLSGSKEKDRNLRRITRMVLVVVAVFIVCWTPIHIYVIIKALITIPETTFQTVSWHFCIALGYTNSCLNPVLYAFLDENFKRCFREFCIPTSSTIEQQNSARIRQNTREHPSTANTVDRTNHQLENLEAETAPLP
measurementLabel: pEC50
Reminder that pEC50 means the negative base-10 logarithm of the concentration expressed in mol/L.

A selection of reference data follows.
| sampleSmiles | pEC50 |
| --- | --- |
| COC(=O)[C@@H]1C[C@H](OC(=O)Nc2nc(C)cs2)C(=O)[C@H]2[C@@]1(C)CC[C@H]1C(=O)O[C@H](c3ccoc3)C[C@]21C | 7.60 |
| COC(=O)[C@@H]1C[C@H](OC(=O)Nc2ccc(F)c(F)c2)C(=O)[C@H]2[C@@]1(C)CC[C@H]1C(=O)O[C@H](c3ccoc3)C[C@]21C | 6.39 |
| COC(=O)[C@@H]1C[C@H](NC(=O)NC(=O)c2ccccc2)C(=O)[C@H]2[C@@]1(C)CC[C@H]1C(=O)O[C@H](c3ccoc3)C[C@]21C | 6.21 |
| COC(=O)[C@@H]1C[C@H](OC(=O)NC(=O)c2ccccc2)C(=O)[C@H]2[C@@]1(C)CC[C@H]1C(=O)O[C@H](c3ccoc3)C[C@]21C | 6.20 |

Please examine the following record next.
**Q:** I'd like to know its pEC50. The molecule in question is `COC(=O)[C@@H]1C[C@H](OC(=O)Nc2cc(C)on2)C(=O)[C@H]2[C@@]1(C)CC[C@H]1C(=O)O[C@H](c3ccoc3)C[C@]21C`
**A:** 6.93

====

Recorded Max Fold Efficacy, one value per entry.
target: UniProtKB P42866; test: β-arrestin recruitment to uOR / receptor internalization; format: cell-based; parameters: expressed in transfected cells; details: maximum signal/background ratio for uOR receptor internalization at the EC50
Format: numeric value only, no unit, no commentary.

A selection of reference data follows.
| molecule | measuredValue |
| --- | --- |
| COC(=O)[C@@H]1C[C@H](OC(=O)NC(=O)c2ccccc2)C(=O)[C@H]2[C@@]1(C)CC[C@H]1C(=O)O[C@H](c3ccoc3)C[C@]21C [Formula Ib-ii] | 4.8 |
| COC(=O)[C@@H]1C[C@H](OC(=O)c2cc(C)on2)C(=O)[C@H]2[C@@]1(C)CC[C@H]1C(=O)O[C@H](c3ccoc3)C[C@]21C | 1.3 |
| COC(=O)[C@@H]1C[C@H](OC(=O)Nc2ccc(OC(F)F)cc2)C(=O)[C@H]2[C@@]1(C)CC[C@H]1C(=O)O[C@H](c3ccoc3)C[C@]21C [Formula Ia-v] | 9.5 |
| COC(=O)[C@@H]1C[C@H](OC(=O)c2ccc(OC)cc2)C(=O)[C@H]2[C@@]1(C)CC[C@H]1C(=O)O[C@H](c3ccoc3)C[C@]21C | 3.1 |
| CCc1ncc(C(=O)O[C@H]2C[C@@H](C(=O)OC)[C@]3(C)CC[C@H]4C(=O)O[C@H](c5ccoc5)C[C@]4(C)[C@H]3C2=O)cn1 | 5.1 |

**Q:** Give UniProtKB P42866 Max Fold Efficacy for COC(=O)[C@@H]1C[C@H](OC(=O)Nc2ccc(F)c(F)c2)C(=O)[C@H]2[C@@]1(C)CC[C@H]1C(=O)O[C@H](c3ccoc3)C[C@]21C [Formula Ia-vii]
**A:** 2.2

**Q:** And then COC(=O)[C@@H]1C[C@H](OC(=O)Nc2nc(C)cs2)C(=O)[C@H]2[C@@]1(C)CC[C@H]1C(=O)O[C@H](c3ccoc3)C[C@]21C [Formula Ic-ii] , what is it?
**A:** 3.8

**Q:** And then COC(=O)[C@@H]1C[C@H](OC(=O)Nc2cnc(C)cn2)C(=O)[C@H]2[C@@]1(C)CC[C@H]1C(=O)O[C@H](c3ccoc3)C[C@]21C [Formula Ic-iii] , what is it?
**A:** 9.5

====

molecular target: uOR (Mus musculus, UniProt P42866); test: Agonist induced ERK 1/2 phosphorylation (efficacy and potency relative to DAMGO)
Recorded pEC50, one value per entry.
Reminder that pEC50 means the negative base-10 logarithm of the concentration expressed in mol/L.

A selection of reference data follows.
| sampleSmiles | measurementTarget | pEC50 |
| --- | --- | --- |
| COC(=O)[C@@H]1C[C@H](OC(=O)Nc2ccc(Cl)cc2F)C(=O)[C@H]2[C@@]1(C)CC[C@H]1C(=O)O[C@H](c3ccoc3)C[C@]21C | uOR (Mus musculus, UniProt P42866) | 6.28 |
| COC(=O)[C@@H]1C[C@H](OC(=O)Nc2ccc(C(F)(F)F)cc2)C(=O)[C@H]2[C@@]1(C)CC[C@H]1C(=O)O[C@H](c3ccoc3)C[C@]21C | uOR (Mus musculus, UniProt P42866) | 6.49 |

**Q:** I'd like to know its pEC50. The compound in question is `COC(=O)[C@@H]1C[C@H](NC(=O)c2ccccc2)C(=O)[C@H]2[C@@]1(C)CC[C@H]1C(=O)O[C@H](c3ccoc3)C[C@]21C`
**A:** 9.63
